test_method_notes: in vivo
measurement_setup: Sprague-Dawley, rat, plasma, iv, 10 mg/kg/day, Cmax, 10 mg/kg/day, 1-hour IV infusion twice daily, study day 14
Bridge positions count the residues as written; N and C are the ends. Square brackets hold non-standard residues; d marks the D form. Peptide text beside a SMILES is read from it. Dab = NCC[C@H](N)C(=O)O
experimental_endpoint: Cmax (ng/mL)
Express it in ng/mL; write the number only.

Any idea what its Cmax is? The compound is CC(=O)N[C@H](C(=O)N[C@H](CO)C(=O)N[C@H]1CCNC(=O)[C@H]([C@@H](C)O)NC(=O)[C@H](CCN)NC(=O)[C@H](CCN)NC(=O)[C@H](CC(C)C)NC(=O)[C@@H](Cc2ccccc2)NC(=O)[C@H](CCN)NC1=O)[C@@H](C)O [SPR741] (Ac-T[dS][Dab][Dab][dF]L[Dab][Dab]T; lactam 3-C)
6700

====

test_method_notes: in vivo
measurement_setup: Sprague-Dawley, rat, plasma, iv, 5 mg/kg/day, Cmax, 5 mg/kg/day, 1-hour IV infusion twice daily, study day 1
Bridge positions count the residues as written; N and C are the ends. Square brackets hold non-standard residues; d marks the D form. Peptide text beside a SMILES is read from it. Dab = NCC[C@H](N)C(=O)O
experimental_endpoint: Cmax (ng/mL)
Express it in ng/mL; write the number only.

Any idea what its Cmax is? The compound is CC(=O)N[C@H](C(=O)N[C@H](CO)C(=O)N[C@H]1CCNC(=O)[C@H]([C@@H](C)O)NC(=O)[C@H](CCN)NC(=O)[C@H](CCN)NC(=O)[C@H](CC(C)C)NC(=O)[C@@H](Cc2ccccc2)NC(=O)[C@H](CCN)NC1=O)[C@@H](C)O [SPR741] (Ac-T[dS][Dab][Dab][dF]L[Dab][Dab]T; lactam 3-C)
3400

====

test_method_notes: in vivo
measurement_setup: male, mouse, plasma, 10 mg/kg
Bridge positions count the residues as written; N and C are the ends. Square brackets hold non-standard residues; d marks the D form. Peptide text beside a SMILES is read from it. Dab = NCC[C@H](N)C(=O)O
experimental_endpoint: Vd
Answer by giving the amount and then stating its unit.

Any idea what its Vd is? The molecule is CC(=O)N[C@H](C(=O)N[C@H](CO)C(=O)N[C@H]1CCNC(=O)[C@H]([C@@H](C)O)NC(=O)[C@H](CCN)NC(=O)[C@H](CCN)NC(=O)[C@H](CC(C)C)NC(=O)[C@@H](Cc2ccccc2)NC(=O)[C@H](CCN)NC1=O)[C@@H](C)O [SPR741] (Ac-T[dS][Dab][Dab][dF]L[Dab][Dab]T; lactam 3-C)
0.179 L/kg

====

test_method_notes: in vivo
measurement_setup: Sprague-Dawley, rat, plasma, iv, 5 mg/kg/day, AUC(0-24), 5 mg/kg/day, 1-hour IV infusion twice daily, study day 1
Bridge positions count the residues as written; N and C are the ends. Square brackets hold non-standard residues; d marks the D form. Peptide text beside a SMILES is read from it. Dab = NCC[C@H](N)C(=O)O
experimental_endpoint: AUC(0-t) (ng·h/mL)
Express it in ng·h/mL; write the number only.

Any idea what its AUC(0-t) is? The compound is CC(=O)N[C@H](C(=O)N[C@H](CO)C(=O)N[C@H]1CCNC(=O)[C@H]([C@@H](C)O)NC(=O)[C@H](CCN)NC(=O)[C@H](CCN)NC(=O)[C@H](CC(C)C)NC(=O)[C@@H](Cc2ccccc2)NC(=O)[C@H](CCN)NC1=O)[C@@H](C)O [SPR741] (Ac-T[dS][Dab][Dab][dF]L[Dab][Dab]T; lactam 3-C)
8200

====

test_method_notes: GLP 14 day repeat dose toxicology study in monkeys incl. CNS assessment
measurement_setup: both, cynomolgus monkey, in vivo
Bridge positions count the residues as written; N and C are the ends. Square brackets hold non-standard residues; d marks the D form. Peptide text beside a SMILES is read from it. Dab = NCC[C@H](N)C(=O)O
experimental_endpoint: NOAEL at 14 days (mg/kg/day)
Express it in mg/kg/day; write the number only.

Any idea what its NOAEL at 14 days is? The compound is CC(=O)N[C@H](C(=O)N[C@H](CO)C(=O)N[C@H]1CCNC(=O)[C@H]([C@@H](C)O)NC(=O)[C@H](CCN)NC(=O)[C@H](CCN)NC(=O)[C@H](CC(C)C)NC(=O)[C@@H](Cc2ccccc2)NC(=O)[C@H](CCN)NC1=O)[C@@H](C)O [SPR741] (Ac-T[dS][Dab][Dab][dF]L[Dab][Dab]T; lactam 3-C)
40

====

test_method_notes: in vivo
measurement_setup: Sprague-Dawley, rat, plasma, iv, 5 mg/kg/day, AUC(0-24), 5 mg/kg/day, 1-hour IV infusion twice daily, study day 14
Bridge positions count the residues as written; N and C are the ends. Square brackets hold non-standard residues; d marks the D form. Peptide text beside a SMILES is read from it. Dab = NCC[C@H](N)C(=O)O
experimental_endpoint: AUC(0-t) (ng·h/mL)
Express it in ng·h/mL; write the number only.

Any idea what its AUC(0-t) is? The compound is CC(=O)N[C@H](C(=O)N[C@H](CO)C(=O)N[C@H]1CCNC(=O)[C@H]([C@@H](C)O)NC(=O)[C@H](CCN)NC(=O)[C@H](CCN)NC(=O)[C@H](CC(C)C)NC(=O)[C@@H](Cc2ccccc2)NC(=O)[C@H](CCN)NC1=O)[C@@H](C)O [SPR741] (Ac-T[dS][Dab][Dab][dF]L[Dab][Dab]T; lactam 3-C)
8300

====

test_method_notes: in vivo
measurement_setup: male, monkey, plasma, 20 mg/kg
Bridge positions count the residues as written; N and C are the ends. Square brackets hold non-standard residues; d marks the D form. Peptide text beside a SMILES is read from it. Dab = NCC[C@H](N)C(=O)O
experimental_endpoint: clearance
Answer by giving the amount and then stating its unit.

Any idea what its clearance is? The compound is CC(=O)N[C@H](C(=O)N[C@H](CO)C(=O)N[C@H]1CCNC(=O)[C@H]([C@@H](C)O)NC(=O)[C@H](CCN)NC(=O)[C@H](CCN)NC(=O)[C@H](CC(C)C)NC(=O)[C@@H](Cc2ccccc2)NC(=O)[C@H](CCN)NC1=O)[C@@H](C)O [SPR741] (Ac-T[dS][Dab][Dab][dF]L[Dab][Dab]T; lactam 3-C)
2.28 mL/min/kg

====

test_method_notes: in vivo
measurement_setup: Sprague-Dawley, rat, plasma, iv, 5 mg/kg/day, Cmax, 5 mg/kg/day, 1-hour IV infusion twice daily, study day 14
Bridge positions count the residues as written; N and C are the ends. Square brackets hold non-standard residues; d marks the D form. Peptide text beside a SMILES is read from it. Dab = NCC[C@H](N)C(=O)O
experimental_endpoint: Cmax (ng/mL)
Express it in ng/mL; write the number only.

Any idea what its Cmax is? The molecule is CC(=O)N[C@H](C(=O)N[C@H](CO)C(=O)N[C@H]1CCNC(=O)[C@H]([C@@H](C)O)NC(=O)[C@H](CCN)NC(=O)[C@H](CCN)NC(=O)[C@H](CC(C)C)NC(=O)[C@@H](Cc2ccccc2)NC(=O)[C@H](CCN)NC1=O)[C@@H](C)O [SPR741] (Ac-T[dS][Dab][Dab][dF]L[Dab][Dab]T; lactam 3-C)
3300

====

target_under_test: hERG potassium channel (Homo sapiens, UniProt Q12809)
Construct: expressed in transfected cells
Sequence (Q12809 whole entry): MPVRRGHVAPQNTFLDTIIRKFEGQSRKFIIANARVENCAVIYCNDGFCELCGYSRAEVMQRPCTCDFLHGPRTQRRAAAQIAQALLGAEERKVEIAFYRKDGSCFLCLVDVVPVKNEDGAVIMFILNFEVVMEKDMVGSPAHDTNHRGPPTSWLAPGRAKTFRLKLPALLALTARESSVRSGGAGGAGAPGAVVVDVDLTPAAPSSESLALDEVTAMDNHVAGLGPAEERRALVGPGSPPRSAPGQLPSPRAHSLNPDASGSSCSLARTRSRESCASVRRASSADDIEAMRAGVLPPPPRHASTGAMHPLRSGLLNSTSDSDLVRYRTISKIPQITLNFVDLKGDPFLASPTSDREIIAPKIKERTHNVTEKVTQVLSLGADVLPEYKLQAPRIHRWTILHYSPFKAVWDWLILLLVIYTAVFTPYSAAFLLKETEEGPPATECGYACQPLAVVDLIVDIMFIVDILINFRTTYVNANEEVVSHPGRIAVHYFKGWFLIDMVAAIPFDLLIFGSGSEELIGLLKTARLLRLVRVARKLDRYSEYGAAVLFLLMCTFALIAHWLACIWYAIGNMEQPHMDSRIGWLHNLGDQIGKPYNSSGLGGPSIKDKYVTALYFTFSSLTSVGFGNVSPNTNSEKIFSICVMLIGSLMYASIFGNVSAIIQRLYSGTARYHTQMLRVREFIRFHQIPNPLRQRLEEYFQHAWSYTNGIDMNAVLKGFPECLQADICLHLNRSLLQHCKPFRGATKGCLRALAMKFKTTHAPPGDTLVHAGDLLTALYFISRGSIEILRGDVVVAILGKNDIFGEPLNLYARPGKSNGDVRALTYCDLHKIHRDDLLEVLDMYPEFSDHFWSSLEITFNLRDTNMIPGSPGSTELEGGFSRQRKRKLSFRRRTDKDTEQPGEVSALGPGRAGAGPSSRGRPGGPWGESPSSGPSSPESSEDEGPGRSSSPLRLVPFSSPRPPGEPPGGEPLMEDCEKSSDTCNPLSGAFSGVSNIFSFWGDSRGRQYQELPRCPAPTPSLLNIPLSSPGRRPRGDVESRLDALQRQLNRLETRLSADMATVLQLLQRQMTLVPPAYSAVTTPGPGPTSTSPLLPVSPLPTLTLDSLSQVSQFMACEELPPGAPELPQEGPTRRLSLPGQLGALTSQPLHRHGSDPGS
test_method_notes: hERG current inhibition, single cell patch clamp in HEK293 cells
Assay type: cell-based
measurement_setup: human
Bridge positions count the residues as written; N and C are the ends. Square brackets hold non-standard residues; d marks the D form. Peptide text beside a SMILES is read from it. Dab = NCC[C@H](N)C(=O)O
experimental_endpoint: inhibition at 10 μg/mL (%)
Express it in %; write the number only.

Any idea what its inhibition at 10 μg/mL is? The compound is CC(=O)N[C@H](C(=O)N[C@H](CO)C(=O)N[C@H]1CCNC(=O)[C@H]([C@@H](C)O)NC(=O)[C@H](CCN)NC(=O)[C@H](CCN)NC(=O)[C@H](CC(C)C)NC(=O)[C@@H](Cc2ccccc2)NC(=O)[C@H](CCN)NC1=O)[C@@H](C)O [SPR741] (Ac-T[dS][Dab][Dab][dF]L[Dab][Dab]T; lactam 3-C)
0.08

====

test_method_notes: in vivo
measurement_setup: male, rat, plasma, 10 mg/kg
Bridge positions count the residues as written; N and C are the ends. Square brackets hold non-standard residues; d marks the D form. Peptide text beside a SMILES is read from it. Dab = NCC[C@H](N)C(=O)O
experimental_endpoint: Vd (L/kg)
Express it in L/kg; write the number only.

Any idea what its Vd is? The compound is CC(=O)N[C@H](C(=O)N[C@H](CO)C(=O)N[C@H]1CCNC(=O)[C@H]([C@@H](C)O)NC(=O)[C@H](CCN)NC(=O)[C@H](CCN)NC(=O)[C@H](CC(C)C)NC(=O)[C@@H](Cc2ccccc2)NC(=O)[C@H](CCN)NC1=O)[C@@H](C)O [SPR741] (Ac-T[dS][Dab][Dab][dF]L[Dab][Dab]T; lactam 3-C)
0.345
